pEC50: −log10 of the molar value.
rat mGlu5 (Rattus norvegicus, UniProt P31424): recorded pEC50 for assorted molecules
Sequence (P31424 21-1203): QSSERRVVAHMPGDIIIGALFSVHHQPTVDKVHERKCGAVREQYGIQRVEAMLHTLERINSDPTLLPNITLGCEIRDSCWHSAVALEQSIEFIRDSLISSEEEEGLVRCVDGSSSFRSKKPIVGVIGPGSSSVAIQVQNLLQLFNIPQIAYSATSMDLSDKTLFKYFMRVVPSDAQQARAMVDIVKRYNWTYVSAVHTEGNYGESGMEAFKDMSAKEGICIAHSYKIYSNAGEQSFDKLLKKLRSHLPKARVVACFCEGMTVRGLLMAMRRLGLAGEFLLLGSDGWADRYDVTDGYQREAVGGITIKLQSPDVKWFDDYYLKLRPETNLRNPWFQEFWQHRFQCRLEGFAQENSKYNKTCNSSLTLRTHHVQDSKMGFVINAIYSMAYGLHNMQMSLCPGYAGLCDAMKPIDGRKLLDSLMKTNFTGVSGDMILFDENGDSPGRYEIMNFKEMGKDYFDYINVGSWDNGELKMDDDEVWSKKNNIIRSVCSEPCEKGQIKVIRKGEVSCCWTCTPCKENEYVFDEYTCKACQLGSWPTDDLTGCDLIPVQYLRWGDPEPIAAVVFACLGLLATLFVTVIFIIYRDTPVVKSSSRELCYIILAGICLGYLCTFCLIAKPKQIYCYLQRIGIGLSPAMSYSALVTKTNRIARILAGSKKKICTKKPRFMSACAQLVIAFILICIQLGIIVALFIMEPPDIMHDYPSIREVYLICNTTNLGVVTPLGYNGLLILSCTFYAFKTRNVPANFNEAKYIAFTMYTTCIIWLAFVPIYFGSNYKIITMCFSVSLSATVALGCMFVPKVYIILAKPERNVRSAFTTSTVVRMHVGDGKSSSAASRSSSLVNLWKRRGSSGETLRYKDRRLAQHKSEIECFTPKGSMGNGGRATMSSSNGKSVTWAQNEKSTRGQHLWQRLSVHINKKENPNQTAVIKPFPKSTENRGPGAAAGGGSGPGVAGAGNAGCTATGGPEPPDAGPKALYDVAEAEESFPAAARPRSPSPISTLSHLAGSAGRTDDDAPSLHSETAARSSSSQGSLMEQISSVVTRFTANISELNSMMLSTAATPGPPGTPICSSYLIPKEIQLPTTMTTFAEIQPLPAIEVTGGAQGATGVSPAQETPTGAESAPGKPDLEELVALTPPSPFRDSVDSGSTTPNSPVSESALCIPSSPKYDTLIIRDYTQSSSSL
MEASURE: pEC50

MOLECULE	MEASURE	VALUE_REPORTED
CCCCOc1ccc(C(=O)Nc2ccc(Cl)cn2)cc1	pEC50	6.18
CCCOc1ccc(C(=O)Nc2ccc(Cl)cn2)cc1	pEC50	5.89
CCCCOc1ccc(C(=O)Nc2ccccc2F)cc1 [VU0040237, 4-butoxy-N-(2-fluorophenyl)benzamide]	pEC50	6.46

From: paper PMC2957851
